Recorded values, source patent US11236106B2.

# target: menin and MLL (menin, Flag tagged; biotinylated MLL1 peptide 1-46aa) (Homo sapiens, UniProt O00255)
# Sequence (O00255 1-610): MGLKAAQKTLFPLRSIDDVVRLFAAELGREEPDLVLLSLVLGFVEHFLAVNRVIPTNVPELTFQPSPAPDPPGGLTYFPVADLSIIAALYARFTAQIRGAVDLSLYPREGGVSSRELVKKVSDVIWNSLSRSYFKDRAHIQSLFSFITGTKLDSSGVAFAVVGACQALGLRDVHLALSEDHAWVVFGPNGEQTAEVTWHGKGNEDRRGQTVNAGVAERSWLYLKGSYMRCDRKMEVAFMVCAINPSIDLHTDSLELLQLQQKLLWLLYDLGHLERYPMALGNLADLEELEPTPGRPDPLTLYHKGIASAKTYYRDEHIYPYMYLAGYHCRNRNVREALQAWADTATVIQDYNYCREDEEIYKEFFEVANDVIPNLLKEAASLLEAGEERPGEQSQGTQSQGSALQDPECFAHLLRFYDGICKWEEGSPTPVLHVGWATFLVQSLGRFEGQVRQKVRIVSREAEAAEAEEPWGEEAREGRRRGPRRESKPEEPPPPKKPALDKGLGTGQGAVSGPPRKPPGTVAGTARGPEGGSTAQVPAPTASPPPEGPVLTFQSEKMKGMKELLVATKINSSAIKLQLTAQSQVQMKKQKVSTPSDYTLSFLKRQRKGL
# procedure-text: biochemical
# run-conditions: IC50, binding inhibitory activity between menin and MLL, AlphaLISA; 1 nM menin, 10 nM biotinylated MLL1 peptide
pIC50: −log10 of the molar value. Counter-ions that a name gives are not always drawn.

molecule: COc1cc(-c2ccc(CN[C@H]3CC[C@@H](N(C)c4ncnc5sc(CC(F)(F)F)cc45)C3)cc2)nnc1OC [Example 95, hydrochloride]
pIC50: 8.92
//
molecule: CN(c1ncnc2sc(CC(F)(F)F)cc12)[C@@H]1CC[C@H](NCc2ccc(-c3cnc4c(c3)OCCO4)cc2)C1 [Example 63, hydrochloride]
pIC50: 7.70
//
molecule: CN(c1ncnc2sc(CC(F)(F)F)cc12)[C@H]1C[C@@H](NCc2ccc(-c3cccc(CS(C)(=O)=O)c3)cc2)C[C@H]1O [Example 86, hydrochloride]
pIC50: 7.68
//
molecule: COc1nc(N(C)C2CC(NCC3CCC(c4cc(OC)c(OC)nn4)CC3)CC2O)c2cc(CC(F)(F)F)sc2n1 (single isomer, unassigned) [Example 128A, Hydrochloride]
pIC50: 7.74
//
molecule: CNc1nc(N(C)[C@H]2C[C@@H](NCc3ccc(-c4cc(F)cc(OC)c4)cc3)C[C@H]2O)c2cc(CC(F)(F)F)sc2n1 [Example 75, hydrochloride]
pIC50: 7.76
//
molecule: COc1nc(N(C)[C@H]2C[C@@H](NCc3ccc(-c4cc(OC)c(OC(F)F)nn4)cc3)C[C@H]2O)c2cc(CC(F)(F)F)sc2n1 [Example 119, hydrochloride]
pIC50: 9.15
//
molecule: CN(c1ncnc2sc(CC(F)(F)F)cc12)[C@H]1C[C@@H](NCc2ccc(-c3cc(F)cc4c3cnn4S(C)(=O)=O)cc2)C[C@H]1O [Example 85, hydrochloride]
pIC50: 8.40
